System: Chenopodium
Experiment: Post-emergence test/greenhouse
Assay type: in vivo
Conditions: Table C, 8 g/ha, after three weeks
Method: To produce a suitable preparation of active compound, 1 part by weight of active compound is mixed with the stated amount of solvent, the stated amount of emulsifier is added and the concentrate is diluted with water to the desired concentration. Test plants which have a height of 5-15 cm are sprayed with the preparation of active compound in such a way as to apply the particular amounts of active compound desired per unit area. […]
READOUT: degree of damage, Chenopodium (%)
I only need the number, in %, no unit after it.

degree of damage, Chenopodium recorded for this molecule, CC(C)Oc1cc(-n2nc3n(c2=O)CCCC3)c(F)cc1C(N)=S , is 95

Record CCS(=O)(=O)Nc1cc(-n2nc(C(F)(F)F)n(C)c2=S)c(F)cc1C(N)=S . Reported degree of damage, Chenopodium: 90

// degree of damage, Chenopodium lookup, molecule = CCOc1cc(N2C(=O)C3CCCCN3C2=O)c(F)cc1C(N)=S (stereo not drawn) , result: 95

Record summary for CCOc1cc(-n2nc3n(c2=O)CCCC3)c(F)cc1C(N)=S : reported degree of damage, Chenopodium = 95

Record summary for CC(C)Oc1cc(N2C(=O)C3CCCCN3C2=O)c(F)cc1C(N)=S (stereo not drawn) : reported degree of damage, Chenopodium = 95

The molecule listed as C#CC(C)Oc1cc(-n2nc(C(F)F)n(C)c2=S)c(F)cc1C(N)=S (stereo not drawn) shows degree of damage, Chenopodium equal to 100

====

system: Chenopodium; assay: Pre-emergence test/greenhouse; assay type: in vivo; settings: Table B, 60 g/ha, after three weeks
READOUT: degree of damage, Chenopodium (%)
Answer with a number only, understood to be in %.

Briefly, degree of damage, Chenopodium measured for CCOc1cc(-n2nc3n(c2=O)CCCC3)c(F)cc1C(N)=S : 100

// C#CC(C)Oc1cc(-n2nc(C(F)F)n(C)c2=S)c(F)cc1C(N)=S (centres unmarked) : degree of damage, Chenopodium value = 100

For CCS(=O)(=O)Nc1cc(-n2nc(C(F)(F)F)n(C)c2=S)c(F)cc1C(N)=S the molecule record lists degree of damage, Chenopodium as 100

The reported value for CCS(=O)(=O)Nc1cc(N2C(=O)C3=C(CCCC3)C2=O)c(F)cc1C(N)=S in terms of degree of damage, Chenopodium is 95

Documented degree of damage, Chenopodium of CCn1c(C(F)(F)F)nn(-c2cc(N(C)S(=O)(=O)CC)c(C(N)=S)cc2F)c1=O : 100

====

test system: Veronica; assay: Post-emergence test/greenhouse; type: in vivo; details: Table C, 15 g/ha, after three weeks
READOUT: degree of damage, Veronica (%)
Number in %, nothing else.

So, CCS(=O)(=O)Nc1cc(-n2nc3n(c2=O)CCCC3)c(F)cc1C(N)=S ? Its degree of damage, Veronica was 100

degree of damage, Veronica for CCS(=O)(=O)Nc1cc(-n2nc(C3CC3)n(C)c2=O)c(F)cc1C(N)=S is 90

degree of damage, Veronica recorded for this compound, Cn1c(C(F)(F)F)nn(-c2cc(NS(C)(=O)=O)c(C(N)=S)cc2F)c1=S , is 100

The reported degree of damage, Veronica of the compound CCn1c(C(F)(F)F)nn(-c2cc(NS(=O)(=O)CC)c(C(N)=S)cc2F)c1=O was 100

Record Cn1c(C(F)(F)F)cc(=O)n(-c2cc(NS(C)(=O)=O)c(C(N)=S)cc2F)c1=S . Reported degree of damage, Veronica: 100

The measured degree of damage, Veronica associated with COCCOCCOc1cc(-n2nc(C)n(C(F)F)c2=O)c(F)cc1C(N)=S reads 100
